Measured pIC50, listed per entry.
- Tested on: recombinant human HDACs
- experiment: HDAC enzymatic assay (LabChip capillary electrophoresis)
- Format: biochemical
- test_settings: 5 nM HDAC enzyme, 1 uM substrate, 5 hours pre-incubation, 17 hours reaction at 25°C; isoform not given
pIC50: −log10 of the molar value.

Nc1ccc(-c2ccc(F)cc2)nc1NC(=O)N1C[C@@H]2[C@@H](CN3CCC3)[C@@H]2C1; < 5.30
Nc1ccc(-n2cccn2)nc1NC(=O)N1Cc2ccncc2C1; 5.30 to 6.30
Nc1ccc(-c2ccccc2)nc1NC(=O)N1CCn2cncc2C1; < 5.30

Here is the next item to consider.
I have this compound here, Nc1ccc(-c2ccc(F)cc2)nc1NC(=O)[C@H]1[C@@H]2CN(C3CCOCC3)C[C@@H]21 (stereo in doubt) , and I need its recorded pIC50.
< 5.30
